# system_under_test: Amine oxidase [flavin-containing] B (Homo sapiens, UniProt P27338)
# assay_remarks: Inhibition of human recombinant MAOB expressed in insect cell microsomes using kynuramine as substrate after 20 mins by fluorescence spectrophotometric analysis
pIC50: −log10 of the molar value.
Entry flag: criterion met if pIC50 reaches 6; criterion not met if it does not.

Would you please look over these solved cases?
- smiles_text: "N#Cc1ccc(SCc2ccc(F)cc2)cc1C#N"
  system_under_test: "Amine oxidase [flavin-containing] B (Homo sapiens, UniProt P27338)"
  label_class: "criterion met"
- smiles_text: "CC(C)CCSc1ccc(C#N)c(C#N)c1"
  system_under_test: "Amine oxidase [flavin-containing] B (Homo sapiens, UniProt P27338)"
  label_class: "criterion met"
- smiles_text: "N#Cc1ccc(Sc2ccc(Cl)cc2)cc1"
  system_under_test: "Amine oxidase [flavin-containing] B (Homo sapiens, UniProt P27338)"
  label_class: "criterion not met"

Exercise: Check the entry N#Cc1ccc(SCCc2ccccc2)cc1 : does pIC50 equal or exceed 6?
Solution: criterion not met

Exercise: # iterate: N#Cc1ccc(SCc2ccc(Cl)cc2)cc1
Solution: criterion met

Exercise: Same thing, different compound: N#Cc1ccc(Sc2ccccc2)cc1
Solution: criterion not met

---

# system_under_test: Amine oxidase [flavin-containing] B (Homo sapiens, UniProt P27338)
# Sequence (P27338 whole entry): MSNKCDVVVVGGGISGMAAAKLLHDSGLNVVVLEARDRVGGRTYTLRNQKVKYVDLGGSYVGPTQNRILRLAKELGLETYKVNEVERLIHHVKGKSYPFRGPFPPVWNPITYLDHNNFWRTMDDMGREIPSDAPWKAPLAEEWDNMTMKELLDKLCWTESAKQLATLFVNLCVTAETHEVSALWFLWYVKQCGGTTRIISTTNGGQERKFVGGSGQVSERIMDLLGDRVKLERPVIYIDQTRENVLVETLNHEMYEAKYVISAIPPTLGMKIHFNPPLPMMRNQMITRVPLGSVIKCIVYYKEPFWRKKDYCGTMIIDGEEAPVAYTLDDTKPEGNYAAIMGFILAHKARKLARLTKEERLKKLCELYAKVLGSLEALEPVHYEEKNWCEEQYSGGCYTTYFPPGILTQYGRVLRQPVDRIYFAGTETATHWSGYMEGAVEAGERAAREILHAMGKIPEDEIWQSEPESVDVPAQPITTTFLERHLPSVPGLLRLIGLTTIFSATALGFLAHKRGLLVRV
# assay_remarks: Inhibition of human recombinant MAOB expressed in insect cell microsomes using kynuramine as substrate after 20 mins by fluorescence spectrophotometric analysis
pIC50: −log10 of the molar value.
Assign TRUE whenever pIC50 does not fall below 7; assign FALSE whenever it does.

Before answering, review these 4 worked examples.
- smiles_text: "N#Cc1ccc(SC2CCCC2)cc1C#N"
  label_class: "FALSE"
- smiles_text: "N#Cc1ccc(SCc2ccc(F)cc2)cc1"
  label_class: "FALSE"
- smiles_text: "N#Cc1ccc(SCc2ccc(Br)cc2)cc1C#N"
  label_class: "TRUE"
- smiles_text: "N#Cc1ccc(SC2CCCCC2)cc1C#N"
  label_class: "FALSE"

Exercise: API: above_or_equal(metric=pIC50, cutoff=7) for item N#Cc1ccc(SCc2ccccc2)cc1
Solution: FALSE

Exercise: How about N#Cc1ccc(SCc2ccc(Cl)cc2)cc1C#N ?
Solution: TRUE

Exercise: Next entry: N#Cc1ccc(SCc2ccc(Br)cc2)cc1
Solution: FALSE

Exercise: Entry N#Cc1ccc(Sc2ccc(Br)cc2)cc1 please
Solution: FALSE

Exercise: Do the same for N#Cc1ccc(SC2CCCCC2)cc1 please
Solution: FALSE

Exercise: Proceed to N#Cc1ccc(Sc2ccccc2)cc1C#N
Solution: FALSE

Exercise: For N#Cc1ccc(SCc2ccccc2)cc1C#N then?
Solution: FALSE
